These data points were gathered from patent US9328138B2.

- targetDesc: HCV NS3 protease genotype 3a (3A-1) (Hepatitis C virus genotype 3a, UniProt Q81258)
- methodNotes: HCV NS3 protease time-resolved fluorescence (TRF) assay, genotype 3a
- Format: biochemical
- testContext: Ki 3a
Readings of Ki for the listed compounds

compound: C=C[C@@H]1C[C@]1(NC(=O)[C@@H]1C[C@@H]2CN1C(=O)[C@H](C1CCCC1)NC(=O)O[C@@H]1CCC[C@H]1CC/C=C/Cc1c(nc3ccccc3c1OCCCO)O2)C(=O)NS(=O)(=O)C1CC1 [Example 72]
Ki / nM: 1.1
--
compound: C=C[C@@H]1C[C@]1(NC(=O)[C@@H]1C[C@@H]2CN1C(=O)[C@H](CC1CCCCC1)NC(=O)O[C@@H]1C[C@H]1CCCCCc1c(nc3ccccc3c1OCCN1CCOCC1)O2)C(=O)NS(=O)(=O)C1(C)CC1 [Example 125]
Ki / nM: 114
--
compound: C=C[C@@H]1C[C@]1(NC(=O)[C@@H]1C[C@@H]2CN1C(=O)[C@H](C(C)(C)C)NC(=O)O[C@@H]1C[C@H]1CCCCCc1c(nc3c(OC)cccc3c1OCCCN1CC3(COC3)C1)O2)C(=O)NS(=O)(=O)C1(C)CC1 [Example 153]
Ki / nM: 0.61
--
compound: C=C[C@@H]1C[C@]1(NC(=O)[C@@H]1C[C@@H]2CN1C(=O)[C@H](C1CCCC1)NC(=O)O[C@@H]1CCC[C@H]1CC/C=C/Cc1c(nc3ccc(Br)cc3c1O)O2)C(=O)NS(=O)(=O)C1CC1 [Example 22]
Ki / nM: 9.3
--
compound: C=C[C@@H]1C[C@]1(NC(=O)[C@@H]1C[C@@H]2CN1C(=O)[C@H](C(C)(C)C)NC(=O)O[C@@H]1C[C@H]1CCCCCc1c(nc3ccccc3c1OC1C3COCC1CN(CC)C3)O2)C(=O)NS(=O)(=O)C1(C)CC1 (stereo partly drawn) [Example 260]
Ki / nM: 2.4
--
compound: C=C[C@@H]1C[C@]1(NC(=O)[C@@H]1C[C@@H]2CN1C(=O)[C@H](C1CCCC1)NC(=O)O[C@@H]1CCC[C@H]1CC/C=C/Cc1c(nc3ccccc3c1OCc1ccccc1)O2)C(=O)NS(=O)(=O)C1CC1 [Example 8]
Ki / nM: 51
--
compound: C=C[C@@H]1C[C@]1(NC(=O)[C@@H]1C[C@@H]2CN1C(=O)[C@H](C(C)(C)C)NC(=O)O[C@@H]1C[C@H]1CCCCCc1c(nc3ccccc3c1OC1CCN(C3CC3)CC1)O2)C(=O)NS(=O)(=O)C1(C)CC1 [Example 220]
Ki / nM: 3.9
--
compound: C=C[C@@H]1C[C@]1(NC(=O)[C@@H]1C[C@@H]2CN1C(=O)[C@H](C(C)(C)C)NC(=O)O[C@@H]1C[C@H]1CCCCCc1c(nc3cc(C(C)C)ccc3c1OCCCN1C[C@@H]3C[C@H]1CO3)O2)C(=O)NS(=O)(=O)C1(C)CC1 [Example 164]
Ki / nM: 1.2
--
compound: CC[C@@H]1C[C@]1(NC(=O)[C@@H]1C[C@@H]2CN1C(=O)[C@H](C1CCCC1)NC(=O)O[C@@H]1CCC[C@H]1CCCCCc1c(nc3ccccc3c1OC)O2)C(=O)NS(=O)(=O)C1CC1 [Example 27]
Ki / nM: 59

---

- targetDesc: HCV NS3 protease genotype 3a (3A-1) (Hepatitis C virus genotype 3a)
- methodNotes: HCV NS3 protease time-resolved fluorescence (TRF) assay, genotype 3a
- Assay type: biochemical
- testContext: Ki 3a
log10 of Ki: recorded values
valueType: log10 of Ki (log10 of the value in nM)

molecule: C=C[C@@H]1C[C@]1(NC(=O)[C@@H]1C[C@@H]2CN1C(=O)[C@H](C(C)(C)C)NC(=O)O[C@@H]1C[C@H]1CCCCCc1c(nc3ccccc3c1OCC1CN(CC)CCO1)O2)C(=O)NS(=O)(=O)C1(C)CC1 (stereo partly drawn)
log10 of Ki: 0.20
//
molecule: C=C[C@@H]1C[C@]1(NC(=O)[C@@H]1C[C@@H]2CN1C(=O)[C@H](C(C)(C)C)NC(=O)O[C@@H]1C[C@H]1CCCCCc1c(nc3ccccc3c1OC1CC3CCC(C1)N3CC)O2)C(=O)NS(=O)(=O)C1(C)CC1 (single isomer, unassigned) [Example 281]
log10 of Ki: 0.10
//
molecule: C=C[C@@H]1C[C@]1(NC(=O)[C@@H]1C[C@@H]2CN1C(=O)[C@H](C1CCCC1)NC(=O)O[C@@H]1CCC[C@H]1CC/C=C/Cc1c(nc3ccccc3c1OCC(=O)O)O2)C(=O)NS(=O)(=O)C1CC1
log10 of Ki: 1.40
//
molecule: CC1(S(=O)(=O)NC(=O)[C@@]23C[C@H]2/C=C\CCCCC[C@@H]2NC(=O)O[C@@H]4C[C@H]4CCCCCc4c(nc5ccccc5c4OCCN4CCCC4)O[C@@H]4C[C@@H](C(=O)N3)N(C4)C2=O)CC1
log10 of Ki: -0.14
//
molecule: C=C[C@@H]1C[C@]1(NC(=O)[C@@H]1C[C@@H]2CN1C(=O)[C@H](C1(C)CCCCC1)NC(=O)O[C@@H]1C[C@H]1CCCCCc1c(nc3ccccc3c1OC1CCNCC1)O2)C(=O)NS(=O)(=O)C1(C)CC1
log10 of Ki: -0.70
//
molecule: C=C[C@@H]1C[C@]1(NC(=O)[C@@H]1C[C@@H]2CN1C(=O)[C@H](C1CCCCC1)NC(=O)O[C@@H]1C[C@H]1CCCCCc1c(nc3ccccc3c1OCCCN1CCC(S(C)(=O)=O)C1)O2)C(=O)NS(=O)(=O)C1(C)CC1 (stereo partly drawn)
log10 of Ki: 0.34

---

- targetDesc: HCV genotype 1b (BK) NS3 modified enzyme with a R155K mutation (Hepatitis C virus genotype 1b, UniProt P26663, R1181K)
- Construct: HCV genotype 1b (BK) NS3 modified enzyme
- methodNotes: HCV NS3 protease time-resolved fluorescence (TRF) assay, genotype 1b R155K
- Format: biochemical
- testContext: Ki 1b R155K, genotype 1b (BK) NS3 R155K; single value
Reported Ki is given for each of the following molecules.

molecule: C=C[C@@H]1C[C@]1(NC(=O)[C@@H]1C[C@@H]2CN1C(=O)[C@H](C(C)(C)C)NC(=O)O[C@@H]1C[C@H]1CCCCCc1c(nc3ccccc3c1O)O2)C(=O)NS(=O)(=O)C1(C)CC1 [Example 120]
readingUnit: nM
boundSign: =
Ki: 0.062
--
molecule: C=C[C@@H]1C[C@]1(NC(=O)[C@@H]1C[C@@H]2CN1C(=O)[C@H](C1CCCC1)NC(=O)O[C@@H]1CCC[C@H]1CC/C=C/Cc1c(nc3ccccc3c1OCCO)O2)C(=O)NS(=O)(=O)C1CC1 [Example 69]
readingUnit: nM
boundSign: <
Ki: 0.016
--
molecule: C=C[C@@H]1C[C@]1(NC(=O)[C@@H]1C[C@@H]2CN1C(=O)[C@H](C(C)(C)C)NC(=O)O[C@@H]1C[C@H]1CCCCCc1c(nc3cc(C)ccc3c1OCCCNC)O2)C(=O)NS(=O)(=O)C1(C)CC1 [Example 149]
readingUnit: nM
boundSign: =
Ki: 0.041

---

- targetDesc: HCV NS3 protease genotype 3a (3A-1) (Hepatitis C virus genotype 3a)
- methodNotes: HCV NS3 protease time-resolved fluorescence (TRF) assay, genotype 3a
- Type: biochemical
- testContext: Ki 3a
- From the text: The HCV NS3 protease inhibitory activity of the present compounds may be tested using assays known in the art. One such assay is HCV NS3 protease time-resolved fluorescence (TRF) assay as described below and in International Patent Application Publication No. WO2006/102087. […] Product fluorescence is detected using either a VICTOR V2 or FUSION fluorophotometer (Perkin Elmer Life and Analytical Sciences) with excitation at 340 nm and emission at 615 nm with a 400 μs delay. […]
pKi: −log10 of the molar value.
Entries and their pKi
valueType: pKi

mol: C=C[C@@H]1C[C@]1(NC(=O)[C@@H]1C[C@@H]2CN1C(=O)[C@H](C(C)(C)C)NC(=O)O[C@@H]1C[C@H]1CCCCCc1c(nc3ccccc3c1OC[C@@H]1CCN(C(=O)OC(C)(C)C)C1)O2)C(=O)NS(=O)(=O)C1(C)CC1
targetDesc: HCV NS3 protease genotype 3a (3A-1) (Hepatitis C virus genotype 3a)
valueType: pKi
number: 8.15

mol: C=C[C@@H]1C[C@]1(NC(=O)[C@@H]1C[C@@H]2CN1C(=O)[C@H](C(C)(C)C)NC(=O)O[C@@H]1C[C@H]1CCCCCc1c(nc3ccccc3c1OCCc1cccnc1)O2)C(=O)NS(=O)(=O)C1(C)CC1
targetDesc: HCV NS3 protease genotype 3a (3A-1) (Hepatitis C virus genotype 3a)
valueType: pKi
number: 8.59

---

- targetDesc: HCV genotype 1b (BK) NS3 modified enzyme with a R155K mutation (Hepatitis C virus genotype 1b, UniProt P26663, R1181K)
- Construct: HCV genotype 1b (BK) NS3 modified enzyme
- methodNotes: HCV NS3 protease time-resolved fluorescence (TRF) assay, genotype 1b R155K
- Assay type: biochemical
- testContext: Ki 1b R155K, genotype 1b (BK) NS3 R155K; single value
pKi: −log10 of the molar value.
pKi for assorted compounds

mol: C=C[C@@H]1C[C@]1(NC(=O)[C@@H]1C[C@@H]2CN1C(=O)[C@H](C1CCCC1)NC(=O)O[C@@H]1CCC[C@H]1CC/C=C/Cc1c(nc3ccccc3c1OCC(=O)N1CCCC1)O2)C(=O)NS(=O)(=O)C1CC1
pKi: 10.09
//
mol: C=C[C@@H]1C[C@]1(NC(=O)[C@@H]1C[C@@H]2CN1C(=O)[C@H](C1CCCC1)NC(=O)O[C@@H]1CCC[C@H]1CC/C=C/Cc1c(nc3ccccc3c1OCCn1cccn1)O2)C(=O)NS(=O)(=O)C1CC1
pKi: 9.60
//
mol: C=C[C@@H]1C[C@]1(NC(=O)[C@@H]1C[C@@H]2CN1C(=O)[C@H](C1CCCC1)NC(=O)O[C@@H]1CCC[C@H]1CC/C=C/Cc1c(nc3ccccc3c1OCCCN1CCCCC1)O2)C(=O)NS(=O)(=O)C1(C)CC1
pKi: 10.00
//
mol: C=C[C@@H]1C[C@]1(NC(=O)[C@@H]1C[C@@H]2CN1C(=O)[C@H](C1CCCC1)NC(=O)O[C@@H]1CCC[C@H]1CCCCCc1c(nc3ccccc3c1OCC)O2)C(=O)NS(=O)(=O)C1CC1
pKi: 9.41
